Values compiled from paper PMC7315563.

# viability at 31.25 µg/mL per entry
System: A549 human lung cancer cells
Assay: cell viability assay (MTT)
Type: cell-based
Details: 31.25 µg/mL, 24 h, read-out: Validity (%) for sample concentrations (µg/mL) 31.25
Method: WI-38 normal lung fibroblast cells, A549 lung cancer cells, and MDA-MB-231 breast cancer cells were obtained from VACSERA—Cell Culture Unit, Cairo, Egypt. The cell lines were originally obtained from the American Tissue Culture Collection (ATCC). […] Cell viability was then assessed using the MTT assay (Sigma Aldrich, St. Louis, MO, USA), and the absorbance was read at 570 nm using an ELISA microplate reader (Molecular Devices, Downingtown, PA, USA).

{"compound": "O=C1C(Cl)C(c2ccccc2)N1c1nc(-c2cc(Cl)cc3c2-c2ccc(Cl)cc2C3)cs1 (centres unmarked)", "targetDesc": "A549 human lung cancer cells", "viability at 31.25 µg/mL [%]": 79.2}
{"compound": "O=C1CSC(c2ccc(Cl)cc2)N1c1nc(-c2cc(Cl)cc3c2-c2ccc(Cl)cc2C3)cs1 (centres unmarked)", "targetDesc": "A549 human lung cancer cells", "viability at 31.25 µg/mL [%]": 89.2}
{"compound": "O=C1C(Cl)C(c2ccnc3ccccc23)N1c1nc(-c2cc(Cl)cc3c2-c2ccc(Cl)cc2C3)cs1 (centres unmarked)", "targetDesc": "A549 human lung cancer cells", "viability at 31.25 µg/mL [%]": 67.9}
{"compound": "COc1ccc(C2SCC(=O)N2c2nc(-c3cc(Cl)cc4c3-c3ccc(Cl)cc3C4)cs2)cc1 (centres unmarked)", "targetDesc": "A549 human lung cancer cells", "viability at 31.25 µg/mL [%]": 84}
{"compound": "O=C1C(Cl)C(c2ccco2)N1c1nc(-c2cc(Cl)cc3c2-c2ccc(Cl)cc2C3)cs1 (centres unmarked)", "targetDesc": "A549 human lung cancer cells", "viability at 31.25 µg/mL [%]": 76.6}
{"compound": "O=C1CSC(c2cccs2)N1c1nc(-c2cc(Cl)cc3c2-c2ccc(Cl)cc2C3)cs1 (centres unmarked)", "targetDesc": "A549 human lung cancer cells", "viability at 31.25 µg/mL [%]": 85.9}
{"compound": "O=C1C(Cl)C(c2ccc([N+](=O)[O-])cc2)N1c1nc(-c2cc(Cl)cc3c2-c2ccc(Cl)cc2C3)cs1 (centres unmarked)", "targetDesc": "A549 human lung cancer cells", "viability at 31.25 µg/mL [%]": 86.2}
{"compound": "O=C1CSC(c2ccccc2)N1c1nc(-c2cc(Cl)cc3c2-c2ccc(Cl)cc2C3)cs1 (centres unmarked)", "targetDesc": "A549 human lung cancer cells", "viability at 31.25 µg/mL [%]": 86.8}
